Source: PubChem BioAssay

Measured z-score, listed per entry for reference.
# protocol text: JC-1 mitochondrial signal, unstimulated myeloma cells – cell-based, JC-1 fluorescence, RPMI8226, 24 h, 100 nL compound, profiling panel (AID 1169); also: test concentration not given here
# protocol conditions: JC-1 mitochondrial potential fluorescence, higher = more signal
No unit in the answer, only the number.

Below are worked cases with known answers.
{"columns": ["compound", "readout name", "meas value"],
 "data": [
  ["COc1ccc([Si](C)(C)[C@@H]2[C@@H](CC(=O)N3CCC[C@H]3CO)O[C@]3(C(=O)N(Cc4cccc(N5C(=O)COc6ccccc65)c4)c4ccccc43)[C@H]2C)cc1", "z-score", -0.975],
  ["CC1CC/C=C\\[C@H]2OC34C=CCN(c5ccc6ccccc6c5)C(=O)[C@H]3N(CCCO)C(=O)[C@@H]4C2C(=O)O1 (stereo not given in full)", "z-score", 0.17],
  ["COc1ccc(CCNC(=O)[C@@]2(c3ccc([N+](=O)[O-])cc3)CC(=O)N(C3CCCCC3)[C@@H]2c2ccc(CO)cc2)cc1", "z-score", 0.562]
]}

Consider the compound COCC(=C=CC[C@H](O)c1ccccc1OCCO)C[C@H](O)c1ccccn1 and give its measured z-score.
-0.471

Consider the compound C=C[C@@H](CO)N(Cc1ccc(OC)cc1)S(=O)(=O)c1ccc(Br)cc1 and give its measured z-score.
0.359

Consider the compound O=C(Cc1ccccc1)[C@H]1C2C=CCCC(c3ccccc3)=C2CN1Cc1ccccc1 (stereo not given in full) and give its measured z-score.
-0.196

Consider the compound CN(C)C(=O)[C@]1(Cc2ccccc2CN=[N+]=[N-])N=C(c2ccc(OCCCO)cc2)O[C@@H]1c1ccccc1 and give its measured z-score.
-1.33

Consider the compound O=C1O[C@@H](c2ccccc2)[C@@H](c2ccccc2)N2[C@@H](c3ccc(O)cc3)[C@]3(C(=O)Nc4ccc(C#CCCO)cc43)[C@@H](C(=O)N3CCN(c4ncccn4)CC3)[C@H]12 and give its measured z-score.
-0.681

Consider the compound CCCCN1CC=CC23O[C@@H]4/C=C\CCC(C)OC(=O)C4[C@H]2C(=O)N(CCCO)[C@@H]3C1=O (stereo not given in full) and give its measured z-score.
0.635

Consider the compound C=CCOC(=O)[C@@H]1[C@H]2C(=O)O[C@H](c3ccccc3)[C@H](c3ccccc3)N2[C@H](c2ccc(OCCOC(=O)[C@@H]3C[C@@H]4C(=O)N[C@@H](CCCC[N+](C)(C)C)C(=O)N4[C@@H]3c3ccc(O)cc3)cc2)[C@@]12C(=O)Nc1ccc(I)cc12 and give its measured z-score.
-0.657

Consider the compound COc1cc(OC)c(C(O)C2C=CC3C(=O)N(Cc4ccccc4)C(=O)C3N2n2cnnc2)cc1Br (stereo not given) and give its measured z-score.
-0.345

---

Measured z-score, listed per entry for reference.
# protocol text: JC-1 mitochondrial potential readout, lung cancer cells – cell-based, A549, JC-1 fluorescence, basal, 24 h, 100 nL, profiling panel (AID 1138);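 also: A549 lung adenocarcinoma cells under basal conditions with no added stimulus; test concentration not given here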
# protocol conditions: higher = more signal
No unit in the answer, only the number.

Below are worked cases with known answers.
{"columns": ["molecule", "z-score"],
 "data": [
  ["CCOc1cc(C(O)C2C=CC3C(=O)NC(=O)C3N2Nc2ccc(Cl)cc2Cl)ccc1O (centres undefined)", -0.262],
  ["CCOC(=O)C[C@H]1[C@H](OC(=O)Cc2ccc3c(c2)OCO3)[C@@H](NC(=O)C2CCCCC2)c2cc(OCCCO)ccc2N1C(=O)c1ccccc1", 1.76],
  ["[N-]=[N+]=NCc1ccccc1[C@H]1OC(c2ccc(OCCCO)cc2)=N[C@@]1(Cc1ccccc1N=[N+]=[N-])C(=O)NCC(O)CO (some centres undefined)", 0.118]
]}

Consider the molecule CC1=C2[C@@H](CCc3ccccc3)OB(O)C[C@@H]2[C@@H]2C(=O)N(Cc3ccccc3)C(=O)[C@@H]2C1 and give its measured z-score.
0.758

Consider the molecule COc1ccc(C#Cc2ccc3c(c2)[C@]2(C(=O)N3)[C@H](C(=O)O)[C@H]3C(=O)O[C@H](c4ccccc4)[C@H](c4ccccc4)N3[C@@H]2c2ccc(O)cc2)cc1 and give its measured z-score.
-2.42

Consider the molecule COc1ccc(C(=O)Nc2ccc(CN3C(=O)[C@]4(O[C@H](CC(=O)N5Cc6ccccc6C[C@H]5CO)[C@@H]([Si](C)(C)c5ccc(OC)cc5)[C@@H]4C)c4ccccc43)cc2)cc1 and give its measured z-score.
-0.615

Consider the molecule CC(C)C[C@@H]1NC(=O)[C@@H]2C[C@H](C(=O)NCCCCCCN)[C@H](c3cccc(OCCO)c3)N2C1=O and give its measured z-score.
-0.645

Consider the molecule [N-]=[N+]=Nc1ccccc1[C@@H]1OC(c2ccc(OCCCO)cc2)=N[C@]1(Cc1ccccc1)C(=O)O and give its measured z-score.
0.506
